The reported measurements were obtained from patent US20240360165A1.

Study target: CDK7/Cyclin H/MAT1 complex (Homo sapiens)
Sequence (P50613 whole entry, species assumed): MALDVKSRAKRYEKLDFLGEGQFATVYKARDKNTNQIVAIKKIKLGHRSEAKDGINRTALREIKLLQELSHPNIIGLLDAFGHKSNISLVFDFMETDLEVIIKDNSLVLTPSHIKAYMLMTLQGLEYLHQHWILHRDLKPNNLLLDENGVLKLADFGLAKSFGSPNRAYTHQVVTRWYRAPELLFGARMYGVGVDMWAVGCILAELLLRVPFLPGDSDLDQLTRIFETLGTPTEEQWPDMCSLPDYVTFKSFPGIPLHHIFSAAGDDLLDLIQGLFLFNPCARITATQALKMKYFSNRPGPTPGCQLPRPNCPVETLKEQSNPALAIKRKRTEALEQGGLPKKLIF
Sequence (P51946 whole entry partner, species assumed): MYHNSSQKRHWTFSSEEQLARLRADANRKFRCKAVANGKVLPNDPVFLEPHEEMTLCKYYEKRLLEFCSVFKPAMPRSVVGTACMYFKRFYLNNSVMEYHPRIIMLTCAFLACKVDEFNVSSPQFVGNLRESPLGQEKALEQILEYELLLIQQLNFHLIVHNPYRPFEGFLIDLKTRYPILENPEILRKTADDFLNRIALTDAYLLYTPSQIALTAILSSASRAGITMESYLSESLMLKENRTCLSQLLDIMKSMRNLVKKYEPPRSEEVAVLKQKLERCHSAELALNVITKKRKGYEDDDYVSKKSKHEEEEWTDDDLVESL
Sequence (P51948 whole entry partner, species assumed): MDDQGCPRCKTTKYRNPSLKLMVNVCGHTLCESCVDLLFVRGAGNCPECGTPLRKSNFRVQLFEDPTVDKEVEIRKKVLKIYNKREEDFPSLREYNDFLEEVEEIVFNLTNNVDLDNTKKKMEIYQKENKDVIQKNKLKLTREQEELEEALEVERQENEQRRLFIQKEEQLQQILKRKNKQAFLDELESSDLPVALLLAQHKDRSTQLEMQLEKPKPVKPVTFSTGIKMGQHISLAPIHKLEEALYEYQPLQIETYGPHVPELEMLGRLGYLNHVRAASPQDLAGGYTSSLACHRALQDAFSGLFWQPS
Assay protocol: CDK7 inhibition assay (Caliper/LabChip EZ Reader kinase assay)
Assay type: biochemical
Condition parameters: Table 1; CDK7/Cyclin H/MAT1 6 nM, ATP 2 mM, 35 min at 27° C.
pIC50: −log10 of the molar value.
Recorded measurements of pIC50, one per entry
Measured quantity: pIC50

compound=CC(C)(O)Cn1cc(-c2ccc3c(-c4nc(N[C@H]5CCCNC5)ncc4C(F)(F)F)c[nH]c3c2)cn1 measured_quantity=pIC50 endpoint_result="6.70 to 7.70"
compound=N#Cc1ccc2c(-c3nc(N[C@H]4CCCNC4)ncc3C(F)(F)F)c[nH]c2c1C#N measured_quantity=pIC50 endpoint_result="> 7.70"
compound=CC(=O)c1cnc(N[C@H]2CCCNC2)nc1-c1c[nH]c2ccccc12 measured_quantity=pIC50 endpoint_result="6.70 to 7.70"
compound=CNC(=O)c1cccc2c(-c3nc(N[C@H]4CCCNC4)ncc3C(F)(F)F)cn(COC)c12 measured_quantity=pIC50 endpoint_result="< 5.30"
compound=Cc1cn(-c2cccc3c(-c4nc(N[C@H]5CCCNC5)ncc4C(F)(F)F)c[nH]c23)cn1 measured_quantity=pIC50 endpoint_result="> 7.70"
compound=O=C1CCN(C(=O)c2ccc3c(-c4nc(N[C@H]5CCCNC5)ncc4C(F)(F)F)c[nH]c3c2)C1 measured_quantity=pIC50 endpoint_result="6.70 to 7.70"
compound=CC(C)(O)CCc1ccc2c(-c3nc(N[C@H]4CCCNC4)ncc3C(F)(F)F)c[nH]c2c1 measured_quantity=pIC50 endpoint_result="6.70 to 7.70"
compound="Cc1ccncc1-c1ccc2c(-c3nc(NC4CCCNC4)ncc3C(F)(F)F)c[nH]c2c1 (centres unmarked)" measured_quantity=pIC50 endpoint_result="> 7.70"
compound=CC(C)(O)CCc1cccc2c(-c3nc(N[C@H]4CCCNC4)ncc3C(F)(F)F)c[nH]c12 measured_quantity=pIC50 endpoint_result="> 7.70"
compound="CCOP(C)(=O)c1cccc2c(-c3nc(N[C@H]4CCCNC4)ncc3C(F)(F)F)c[nH]c12 (some centres unmarked)" measured_quantity=pIC50 endpoint_result="> 7.70"
compound=CC1(C)CNC[C@@H](Nc2ncc(Cl)c(-c3c[nH]c4c(S(C)(=O)=O)c(C#N)ccc34)n2)C1 measured_quantity=pIC50 endpoint_result="> 7.70"
compound=O=C(c1cccc(-c2ccc3c(-c4nc(N[C@H]5CCCNC5)ncc4C(F)(F)F)c[nH]c3c2)c1)N1CCCC1 measured_quantity=pIC50 endpoint_result="6.70 to 7.70"
compound="CC[C@]1(O)CCN(C(=O)c2ccc3c(-c4nc(N[C@H]5CCCNC5)ncc4C(F)(F)F)c[nH]c3c2)C1 (single isomer, unassigned)" measured_quantity=pIC50 endpoint_result="6.70 to 7.70"
compound=Cn1cc(-c2nc(N[C@H]3CCCNC3)ncc2C(F)(F)F)c2cccc(S(C)(=O)=O)c21 measured_quantity=pIC50 endpoint_result="6.70 to 7.70"
compound=CCN1CCC[C@H](Nc2ncc(C(F)(F)F)c(-c3c[nH]c4cc(S(C)(=O)=O)ccc34)n2)C1 measured_quantity=pIC50 endpoint_result="> 7.70"
compound=OCc1cncc(-c2ccc3c(-c4nc(N[C@H]5CCCNC5)ncc4C(F)(F)F)c[nH]c3c2)c1 measured_quantity=pIC50 endpoint_result="> 7.70"
compound=FC(F)(F)c1cnc(N[C@H]2CCCNC2)nc1-c1c[nH]c2cc(-c3ccncc3)ccc12 measured_quantity=pIC50 endpoint_result="> 7.70"

* * *

Study target: CDK12 (aa686-1082)/Cyclin K complex (Homo sapiens, UniProt Q9NYV4)
Construct: CDK12 (aa686-1082)/Cyclin K complex
Sequence (Q9NYV4 686-1082, species assumed): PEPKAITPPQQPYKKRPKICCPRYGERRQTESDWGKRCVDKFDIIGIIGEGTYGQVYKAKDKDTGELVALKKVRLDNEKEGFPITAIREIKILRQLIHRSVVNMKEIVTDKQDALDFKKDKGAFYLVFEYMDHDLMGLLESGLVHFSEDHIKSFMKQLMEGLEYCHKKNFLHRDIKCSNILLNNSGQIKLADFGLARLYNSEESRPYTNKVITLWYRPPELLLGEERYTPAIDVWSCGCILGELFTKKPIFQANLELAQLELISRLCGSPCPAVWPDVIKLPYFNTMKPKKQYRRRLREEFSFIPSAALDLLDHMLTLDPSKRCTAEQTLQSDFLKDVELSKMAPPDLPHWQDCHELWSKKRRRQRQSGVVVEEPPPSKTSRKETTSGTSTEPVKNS
Sequence (O75909 whole entry partner, species assumed, the tested form may be a part): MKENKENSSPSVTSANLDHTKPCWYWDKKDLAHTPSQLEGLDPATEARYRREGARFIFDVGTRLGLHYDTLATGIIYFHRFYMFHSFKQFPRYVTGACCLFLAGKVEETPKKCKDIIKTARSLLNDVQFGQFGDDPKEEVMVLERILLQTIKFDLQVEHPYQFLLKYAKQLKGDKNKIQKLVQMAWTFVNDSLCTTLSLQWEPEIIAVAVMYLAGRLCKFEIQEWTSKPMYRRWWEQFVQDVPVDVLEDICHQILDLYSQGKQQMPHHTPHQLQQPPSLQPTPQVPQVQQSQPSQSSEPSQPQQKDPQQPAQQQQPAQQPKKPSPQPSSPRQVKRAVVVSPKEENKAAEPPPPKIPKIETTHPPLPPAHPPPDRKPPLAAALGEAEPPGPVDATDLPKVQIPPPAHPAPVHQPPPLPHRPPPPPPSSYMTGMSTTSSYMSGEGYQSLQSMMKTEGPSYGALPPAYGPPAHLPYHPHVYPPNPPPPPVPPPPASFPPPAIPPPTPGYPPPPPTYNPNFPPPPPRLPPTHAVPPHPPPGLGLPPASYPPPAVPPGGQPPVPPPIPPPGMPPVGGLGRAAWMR
Assay protocol: CDK12 inhibition assay (Caliper/LabChip EZ Reader kinase assay)
Type: biochemical
Condition parameters: Table 1; CDK12 (aa686-1082)/Cyclin K 50 nM, ATP 2 mM, 3 hr at 27° C.
Measured quantity: IC50

compound=Cn1ccc(-c2ccc3c(-c4nc(N[C@H]5CCCNC5)ncc4C(F)(F)F)c[nH]c3c2)n1 endpoint_result="0.2 to 5 µM"
compound="FC(F)(F)c1cnc(N[C@@H]2CNC[C@H](c3nnc4ccccn34)C2)nc1-c1c[nH]c2ccccc12 (relative stereo) [Compound 266]" endpoint_result="0.2 to 5 µM"
compound="O=C(C1CCC(Nc2ncc(C(F)(F)F)c(-c3c[nH]c4ccccc34)n2)CN1)N1CCC(O)C1 (mixture of isomers) [Compound 244]" endpoint_result="0.2 to 5 µM"
compound=Fc1cc2[nH]cc(-c3nc(N[C@H]4CCCNC4)ncc3C(F)(F)F)c2cc1F endpoint_result="0.02 to 0.2 µM"
compound="Cn1cc(-c2nc(NC3CCCNC3)ncc2C(F)(F)F)c2cccc(C#N)c21 (stereo not drawn)" endpoint_result="> 5 µM"
compound="N#Cc1cn(-c2ccc3c(-c4nc(NC5CCCNC5)ncc4C(F)(F)F)c[nH]c3c2)cn1 (stereo not drawn)" endpoint_result="0.2 to 5 µM"
compound=FC(F)(F)c1cc2[nH]cc(-c3ccc4c(-c5nc(N[C@H]6CCCNC6)ncc5C(F)(F)F)c[nH]c4c3)c2cn1 endpoint_result="0.2 to 5 µM"
compound="CC1(C)CCNC[C@H]1Nc1ncc(C(F)(F)F)c(-c2c[nH]c3ccccc23)n1 (single isomer, unassigned)" endpoint_result="> 5 µM"
compound=Cc1c(-c2ccc3c(-c4nc(N[C@H]5CCCNC5)ncc4C(F)(F)F)c[nH]c3c2)c[nH]c(=O)c1C#N endpoint_result="0.2 to 5 µM"
compound="CC1CCNCC1Nc1ncc(C(F)(F)F)c(-c2c[nH]c3ccccc23)n1 (single isomer, unassigned) [Compound 372]" endpoint_result="0.2 to 5 µM"
compound=CCc1cnc(N[C@H]2CCCNC2)nc1-c1n[nH]c2cc(C#N)ccc12 endpoint_result="0.2 to 5 µM"
compound=CS(=O)(=O)Cc1ccc2c(-c3nc(N[C@H]4CCCNC4)ncc3C(F)(F)F)c[nH]c2c1 endpoint_result="0.2 to 5 µM"
compound="CC(O)c1cnc(NC2CCCNC2)nc1-c1c[nH]c2ccccc12 (single isomer, unassigned) [Compound 238]" endpoint_result="> 5 µM"
compound=COCn1cc(-c2nc(N[C@H]3CCCNC3)ncc2C(F)(F)F)c2cccc(C#N)c21 endpoint_result="> 5 µM"
compound="Cn1cc(-c2ccc3c(-c4nc(NC5CCCNC5)ncc4C(F)(F)F)c[nH]c3c2)ccc1=O (stereo not drawn)" endpoint_result="0.2 to 5 µM"
compound="FC(F)(F)Sc1cnc(NC2CCCNC2)nc1-c1c[nH]c2ccccc12 (stereo not drawn)" endpoint_result="0.2 to 5 µM"
compound="OC1CC=C(c2cccc3c(-c4nc(N[C@H]5CCCNC5)ncc4C(F)(F)F)c[nH]c23)CC1 (stereo partly drawn)" endpoint_result="0.2 to 5 µM"
compound=CCc1cnc(N[C@H]2CCCNC2)nc1-c1c[nH]c2c(S(=O)O)cccc12 endpoint_result="> 5 µM"
